Biological target: T1, Hel308 (ssHel308) wild type (Sulfolobus solfataricus PBL2025, UniProt D0KN27 8-715)
T1 sequence: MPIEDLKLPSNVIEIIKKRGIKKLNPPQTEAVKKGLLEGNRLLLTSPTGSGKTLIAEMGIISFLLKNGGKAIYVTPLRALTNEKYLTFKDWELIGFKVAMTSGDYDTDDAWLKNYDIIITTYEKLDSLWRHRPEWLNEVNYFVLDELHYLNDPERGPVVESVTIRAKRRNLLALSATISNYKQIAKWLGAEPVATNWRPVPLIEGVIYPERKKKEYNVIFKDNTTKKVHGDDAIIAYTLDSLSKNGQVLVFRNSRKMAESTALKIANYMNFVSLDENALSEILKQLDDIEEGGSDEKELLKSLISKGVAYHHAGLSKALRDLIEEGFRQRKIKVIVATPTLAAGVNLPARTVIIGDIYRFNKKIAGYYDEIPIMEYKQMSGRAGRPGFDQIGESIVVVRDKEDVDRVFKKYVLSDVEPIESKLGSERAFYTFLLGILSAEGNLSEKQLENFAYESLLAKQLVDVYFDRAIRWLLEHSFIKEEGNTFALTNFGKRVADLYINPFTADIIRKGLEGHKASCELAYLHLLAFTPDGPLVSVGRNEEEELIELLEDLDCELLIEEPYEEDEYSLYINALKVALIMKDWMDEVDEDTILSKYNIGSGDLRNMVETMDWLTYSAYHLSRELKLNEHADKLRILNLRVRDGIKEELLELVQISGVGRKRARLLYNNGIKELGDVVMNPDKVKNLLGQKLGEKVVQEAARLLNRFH
Experiment: competition
Parameter: pKd
Would you please state pKd, meaning minus log10 of the concentration in mol/L, as a bare number?

# input Could you tell me which pKd is on file for TTTTTTTTTTTTTTT (ssDNA) [15T ssDNA, unlabelled competitor] ?
# output 6.89
